# tgt: GSPT1 (Homo sapiens, UniProt P15170+Q96SW2)
# Sequence (P15170 whole entry, the tested form may be a part): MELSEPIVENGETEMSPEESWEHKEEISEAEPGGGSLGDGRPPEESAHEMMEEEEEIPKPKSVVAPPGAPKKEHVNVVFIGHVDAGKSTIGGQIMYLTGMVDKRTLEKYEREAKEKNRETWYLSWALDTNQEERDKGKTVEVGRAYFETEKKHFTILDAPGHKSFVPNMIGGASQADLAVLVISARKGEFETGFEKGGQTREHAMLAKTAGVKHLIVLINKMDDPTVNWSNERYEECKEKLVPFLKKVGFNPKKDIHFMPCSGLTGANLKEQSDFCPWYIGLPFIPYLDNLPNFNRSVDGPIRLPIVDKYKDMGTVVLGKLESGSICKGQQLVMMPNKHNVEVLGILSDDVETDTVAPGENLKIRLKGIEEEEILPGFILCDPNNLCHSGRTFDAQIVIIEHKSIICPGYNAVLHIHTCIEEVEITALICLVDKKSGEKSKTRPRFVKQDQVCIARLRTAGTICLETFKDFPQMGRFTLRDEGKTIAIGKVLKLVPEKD
# Sequence (Q96SW2 whole entry, the tested form may be a part): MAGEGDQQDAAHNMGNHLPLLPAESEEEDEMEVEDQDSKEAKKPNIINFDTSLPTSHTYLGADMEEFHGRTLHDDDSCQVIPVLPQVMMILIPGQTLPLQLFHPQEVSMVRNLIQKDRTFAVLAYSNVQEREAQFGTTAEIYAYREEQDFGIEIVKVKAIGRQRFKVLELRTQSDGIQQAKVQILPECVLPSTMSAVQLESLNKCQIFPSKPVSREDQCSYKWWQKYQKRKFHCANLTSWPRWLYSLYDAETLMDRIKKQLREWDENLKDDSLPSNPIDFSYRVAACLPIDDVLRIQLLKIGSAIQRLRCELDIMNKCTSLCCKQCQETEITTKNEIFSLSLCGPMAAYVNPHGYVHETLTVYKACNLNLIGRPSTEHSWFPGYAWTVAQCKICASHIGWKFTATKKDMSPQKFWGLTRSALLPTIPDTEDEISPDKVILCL
# Sequence (Q16531 whole entry partner, the tested form may be a part): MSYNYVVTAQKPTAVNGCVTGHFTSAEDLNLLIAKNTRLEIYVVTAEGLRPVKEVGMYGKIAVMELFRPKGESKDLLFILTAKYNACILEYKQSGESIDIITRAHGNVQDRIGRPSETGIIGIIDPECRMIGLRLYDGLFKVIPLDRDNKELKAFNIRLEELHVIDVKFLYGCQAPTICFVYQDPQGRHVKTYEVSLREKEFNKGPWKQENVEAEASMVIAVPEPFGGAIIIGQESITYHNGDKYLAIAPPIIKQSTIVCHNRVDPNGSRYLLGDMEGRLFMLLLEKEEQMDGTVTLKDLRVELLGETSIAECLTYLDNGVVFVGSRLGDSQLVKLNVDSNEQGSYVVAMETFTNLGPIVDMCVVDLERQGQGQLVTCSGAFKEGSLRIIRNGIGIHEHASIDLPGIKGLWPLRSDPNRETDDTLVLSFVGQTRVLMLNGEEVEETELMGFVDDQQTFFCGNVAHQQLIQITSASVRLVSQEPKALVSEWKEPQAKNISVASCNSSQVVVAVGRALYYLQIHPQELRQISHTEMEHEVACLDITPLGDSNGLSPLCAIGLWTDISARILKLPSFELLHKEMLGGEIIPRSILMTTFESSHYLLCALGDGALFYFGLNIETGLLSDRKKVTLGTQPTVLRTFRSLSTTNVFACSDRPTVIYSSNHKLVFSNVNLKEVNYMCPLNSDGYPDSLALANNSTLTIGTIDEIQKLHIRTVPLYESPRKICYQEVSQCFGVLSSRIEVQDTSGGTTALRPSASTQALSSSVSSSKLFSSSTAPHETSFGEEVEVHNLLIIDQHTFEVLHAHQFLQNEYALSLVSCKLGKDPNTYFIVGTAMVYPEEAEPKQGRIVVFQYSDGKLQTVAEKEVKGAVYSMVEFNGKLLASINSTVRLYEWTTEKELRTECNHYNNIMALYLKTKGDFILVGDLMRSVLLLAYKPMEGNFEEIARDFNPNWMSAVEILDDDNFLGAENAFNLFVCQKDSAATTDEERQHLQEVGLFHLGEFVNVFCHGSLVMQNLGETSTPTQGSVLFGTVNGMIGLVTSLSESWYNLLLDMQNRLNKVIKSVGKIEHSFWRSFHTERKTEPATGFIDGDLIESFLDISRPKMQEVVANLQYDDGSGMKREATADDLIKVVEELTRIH
# measurement.notes: Cellular degradation assay, eGFP-GSPT1 fusion with mCherry reporter in Flp-In 293 cells
# Assay type: cell-based
# Parameters: expressed in transfected cells; host or cells: Flp-In 293
# condition.description: compound concentration 2.00E−06; 5 h incubation; n=1
Label Y when GSPT1 GFP/RFP Relative Abundance is strictly below 0.9; at or above that, label N.

Here's what some known entries look like.
[[record]]
molecule = "CN(C)C(=O)Cc1ccc(NC2=CC(=O)N(C3CCC(=O)NC3=O)C2=O)cc1 (stereo not drawn)"
tgt = "GSPT1 (Homo sapiens, UniProt P15170+Q96SW2)"
class_assignment = "N"

[[record]]
molecule = "Cc1ccc(NC(=O)NCCc2cccc(NC3=CC(=O)N(C4CCC(=O)NC4=O)C3=O)c2)cc1Cl (stereo not drawn)"
tgt = "GSPT1 (Homo sapiens, UniProt P15170+Q96SW2)"
class_assignment = "N"

[[record]]
molecule = "O=C1CCC(N2C(=O)C=C(Nc3ccc(Cl)cc3)C2=O)C(=O)N1 (stereo not drawn)"
tgt = "GSPT1 (Homo sapiens, UniProt P15170+Q96SW2)"
class_assignment = "N"


### Prompt Strictly below 0.9 in GSPT1 GFP/RFP Relative Abundance? Cc1ccc(NC2=CC(=O)N(C3CCC(=O)NC3=O)C2=O)cc1C (stereo not drawn)
### Response N

### Prompt Strictly below 0.9 in GSPT1 GFP/RFP Relative Abundance? O=C(Cc1ccc(Cl)c(Cl)c1)NCc1cccc(NC2=CC(=O)N(C3CCC(=O)NC3=O)C2=O)c1 (stereo not drawn)
### Response Y

### Prompt Strictly below 0.9 in GSPT1 GFP/RFP Relative Abundance? O=C1CCC(N2C(=O)C=C(Nc3nccs3)C2=O)C(=O)N1 (stereo not drawn)
### Response N

### Prompt Strictly below 0.9 in GSPT1 GFP/RFP Relative Abundance? Cc1ccc(NC2=CC(=O)N(C3CCC(=O)NC3=O)C2=O)cc1Cl (stereo not drawn)
### Response N

### Prompt Strictly below 0.9 in GSPT1 GFP/RFP Relative Abundance? O=C1CCC(N2C(=O)C=C(Nc3cccc(NC(=O)Nc4ccc(Cl)c(Cl)c4)c3)C2=O)C(=O)N1 (stereo not drawn)
### Response Y

### Prompt Strictly below 0.9 in GSPT1 GFP/RFP Relative Abundance? Cc1ccc(NC(=O)OCc2cccc(NC3=CC(=O)N(C4CCC(=O)NC4=O)C3=O)c2)cc1Cl (stereo not drawn)
### Response Y

### Prompt Strictly below 0.9 in GSPT1 GFP/RFP Relative Abundance? Cc1ccc(NC(=O)/C=C/c2cccc(NC3=CC(=O)N(C4CCC(=O)NC4=O)C3=O)c2)cc1Cl (stereo not drawn)
### Response Y

### Prompt Strictly below 0.9 in GSPT1 GFP/RFP Relative Abundance? O=C1CCC(N2C(=O)C=C(Nc3cccc(CNC(=O)Nc4ccc(Cl)c(Cl)c4)c3)C2=O)C(=O)N1 (stereo not drawn)
### Response Y

### Prompt Strictly below 0.9 in GSPT1 GFP/RFP Relative Abundance? O=C1CCC(N2C(=O)C=C(Nc3ccc4cc[nH]c4c3)C2=O)C(=O)N1 (stereo not drawn)
### Response N

### Prompt Strictly below 0.9 in GSPT1 GFP/RFP Relative Abundance? CCOC(=O)c1cccc(NC2=CC(=O)N(C3CCC(=O)NC3=O)C2=O)c1 (stereo not drawn)
### Response N

### Prompt Strictly below 0.9 in GSPT1 GFP/RFP Relative Abundance? O=C1CCC(N2C(=O)C=C(Nc3cccc(Cl)c3)C2=O)C(=O)N1 (stereo not drawn)
### Response N

### Prompt Strictly below 0.9 in GSPT1 GFP/RFP Relative Abundance? O=C1CCC(N2C(=O)C=C(Nc3cccc(-c4nnn[nH]4)c3)C2=O)C(=O)N1 (stereo not drawn)
### Response N

### Prompt Strictly below 0.9 in GSPT1 GFP/RFP Relative Abundance? COC(=O)CNC1=CC(=O)N(C2CCC(=O)NC2=O)C1=O (stereo not drawn)
### Response N

### Prompt Strictly below 0.9 in GSPT1 GFP/RFP Relative Abundance? Cc1ccc(NC(=O)N(C)Cc2cccc(NC3=CC(=O)N(C4CCC(=O)NC4=O)C3=O)c2)cc1Cl (stereo not drawn)
### Response Y

### Prompt Strictly below 0.9 in GSPT1 GFP/RFP Relative Abundance? O=C1CCC(N2C(=O)C=C(Nc3ccc(-c4ccccc4)cc3)C2=O)C(=O)N1 (stereo not drawn)
### Response N

### Prompt Strictly below 0.9 in GSPT1 GFP/RFP Relative Abundance? Cc1ccc(NC(=O)NC(C)c2cccc(NC3=CC(=O)N(C4CCC(=O)NC4=O)C3=O)c2)cc1Cl (stereo not drawn)
### Response Y

### Prompt Strictly below 0.9 in GSPT1 GFP/RFP Relative Abundance? Cc1ccc(NC(=O)NCc2ccc3c(c2)CN(C2CCC(=O)NC2=O)C3=O)cc1Cl (stereo not drawn) [CC-885, reference compound]
### Response Y

### Prompt Strictly below 0.9 in GSPT1 GFP/RFP Relative Abundance? Cc1ccc(NCc2cccc(NC3=CC(=O)N(C4CCC(=O)NC4=O)C3=O)c2)cc1Cl (stereo not drawn)
### Response Y

### Prompt Strictly below 0.9 in GSPT1 GFP/RFP Relative Abundance? Cc1ccc(NC(=O)NCc2cccc(NC3=CC(=O)N(C4CCC(=O)NC4=O)C3=O)c2)cc1Cl (stereo not drawn)
### Response Y
